Where these numbers come from: patent US12599672B2

- System name: KRAS G12V (Homo sapiens, UniProt P01116, G12V)
- Construct: SW620-KRAS (G12V)-HiBit-KI cell (Pharmaron); host or cells: SW620-KRAS (G12V)-HiBit-KI cells (HiBiT knock-in at the endogenous KRAS locus)
- Sequence (P01116 1-188 isoform P01116-2 G12V): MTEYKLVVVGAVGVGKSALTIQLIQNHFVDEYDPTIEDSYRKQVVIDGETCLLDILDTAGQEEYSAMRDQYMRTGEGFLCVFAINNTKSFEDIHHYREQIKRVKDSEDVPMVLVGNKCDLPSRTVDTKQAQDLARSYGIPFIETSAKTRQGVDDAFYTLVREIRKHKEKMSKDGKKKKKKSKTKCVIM
- Test name: KRAS G12V HiBit assay
- Type: cell-based
- Particulars: SW620-KRAS (G12V)-HiBit-KI cells, compound treatment for 24 hours, class symbols
Listed molecules paired with reported DC50

Consider the worked cases shown below.
Molecule: CCc1c(F)ccc2cc(O)cc(-c3ncc4c(N5CCC[C@@](C)(O)C5)nc(OC[C@]56CCCN5[C@H](COC(=O)N5CCC(Oc7cccc8c7n(C)c(=O)n8C7CCC(=O)NC7=O)CC5)CC6)nc4c3F)c12 (stereo partly shown)
DC50: 10 to 100 nM
--
Molecule: CCc1c(F)ccc2cc(O)cc(-c3ncc4c(N5CCC[C@@](C)(O)C5)nc(OC[C@]56CCCN5[C@H](COC(=O)NC5CCN(c7ccc8c(c7)n(C)c(=O)n8C7CCC(=O)NC7=O)CC5)CC6)nc4c3F)c12 (stereo partly shown)
DC50: 10 to 100 nM
--
Molecule: C#Cc1cccc2cc(O)cc(-c3ncc4c(N5CCC[C@@](C)(O)C5)nc(OC[C@@]56CCCN5[C@H](COC(=O)N5CCC(CN7CCC(c8ccc9c(c8)n(C)c(=O)n9C8CCC(=O)NC8=O)CC7)CC5)CC6)nc4c3F)c12 (stereo partly shown)
DC50: < 10 nM

Switching to the query record.
The molecule CCc1c(F)ccc2cc(O)cc(-c3ncc4c(N5CCC[C@@](C)(O)C5)nc(OC[C@@]56CCCN5[C@H](COC(=O)N5CCC7(CC5)CC(N5CCC(c8ccc9c(c8)n(C)c(=O)n9C8CCC(=O)NC8=O)CC5)C7)CC6)nc4c3F)c12 (stereo partly shown) showed DC50 equal to < 10 nM
